experiment: Inhibition of CaCl2 activated hyaluronidase (unknown origin) using hyaluronic acid as substrate preincubated for 20 mins followed by substrate addition measured after 10 mins in presence of dithiothreitol by colorimetric method; parameters: species or system Homo sapiens
pIC50: −log10 of the molar value.
Measured Metric: pIC50

• Oc1cc(O)c2c(c1)O[C@H](c1ccc(O)c(O)c1)[C@H](O)C2 [(-)-EPICATECHIN] = 3.09

###

# Lookup of reported pIC50 keyed by entry
test: Inhibition of hyaluronidase (unknown origin) using hyaluronic acid as substrate preincubated for 20 mins followed by substrate addition measured after 40 mins by colorimetric method; parameters: species or system Homo sapiens
pIC50: −log10 of the molar value.
Measured Metric: pIC50

• Oc1cc(O)c2c(c1)O[C@H](c1ccc(O)c(O)c1)[C@H](O)C2 [(-)-EPICATECHIN] = 3.09
• O=C(O)[C@H]1O[C@@H](Oc2cc3oc(-c4ccccc4)cc(=O)c3c(O)c2O)[C@H](O)[C@@H](O)[C@@H]1O [BAICALIN] = 3.30
• CC1(C)CC[C@]2(C(=O)O[C@@H]3O[C@H](CO)[C@@H](O)[C@H](O)[C@H]3O)CC[C@]3(C)C(=CC[C@@H]4[C@@]5(C)CC[C@H](O[C@@H]6O[C@H](C(=O)O)[C@@H](O)[C@H](O)[C@H]6O[C@@H]6O[C@H](CO)[C@@H](O)[C@H](O)[C@H]6O)C(C)(C)[C@@H]5CC[C@]43C)[C@@H]2C1 [GINSENOSIDE R0] = 4.47
• Oc1cc(O)c2c(c1)O[C@@H](c1ccc(O)c(O)c1)[C@H](O)C2 [(-)-CATECHIN] = 2.96
• CC1(C)[C@@H](O[C@H]2O[C@H](C(=O)O)[C@@H](O)[C@H](O)[C@H]2O[C@@H]2O[C@H](C(=O)O)[C@@H](O)[C@H](O)[C@H]2O)CC[C@]2(C)[C@H]3C(=O)C=C4[C@@H]5C[C@@](C)(C(=O)O)CC[C@]5(C)CC[C@@]4(C)[C@]3(C)CC[C@@H]12 [GLYCYRRHIZIN] = 5.07
• CC1(C)CC[C@]2(C(=O)O[C@@H]3O[C@H](CO)[C@@H](O)[C@H](O)[C@H]3O)CC[C@]3(C)C(=CC[C@@H]4[C@@]5(C)CC[C@H](O[C@@H]6O[C@H](C(=O)O)[C@@H](O[C@@H]7O[C@@H](CO)[C@H](O)[C@H]7O)[C@H](O)[C@H]6O)C(C)(C)[C@@H]5CC[C@]43C)[C@@H]2C1 = 4.62
